B1: library; numbered along this chain (parent)
chain: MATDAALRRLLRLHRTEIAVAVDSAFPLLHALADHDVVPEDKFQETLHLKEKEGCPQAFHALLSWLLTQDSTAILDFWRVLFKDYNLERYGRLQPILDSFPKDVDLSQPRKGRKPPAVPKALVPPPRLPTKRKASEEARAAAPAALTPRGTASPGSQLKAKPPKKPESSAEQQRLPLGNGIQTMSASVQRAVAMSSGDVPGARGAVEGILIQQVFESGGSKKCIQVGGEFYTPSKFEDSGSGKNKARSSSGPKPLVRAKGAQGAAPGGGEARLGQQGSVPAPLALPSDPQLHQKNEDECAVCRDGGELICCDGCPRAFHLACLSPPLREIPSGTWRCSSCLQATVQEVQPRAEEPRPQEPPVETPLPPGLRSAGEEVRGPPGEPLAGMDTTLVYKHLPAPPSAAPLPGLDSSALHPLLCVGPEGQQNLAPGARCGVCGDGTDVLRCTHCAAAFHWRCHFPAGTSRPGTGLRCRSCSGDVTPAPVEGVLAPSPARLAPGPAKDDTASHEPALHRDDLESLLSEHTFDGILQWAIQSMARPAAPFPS

- Variants of: B1
- protocol_description: AIRE transcriptional activation functional score (insulin promoter-GFP; nonsense median 0, synonymous median 1) (normalised score); higher = higher AIRE activity (more reporter activation)
- experimental_parameters: with insulin promoter-GFP reporter in HEK293
Give class 1 when the value for AIRE transcriptional activation functional score is at least 0.9. Give class 0 when it is less.

Query: Exam item: decide whether the reported AIRE transcriptional activation functional score for P483S is at least 0.9.
Response: class 0

Query: Exam item: decide whether the reported AIRE transcriptional activation functional score for T468V is at least 0.9.
Response: class 1

Query: Exam item: decide whether the reported AIRE transcriptional activation functional score for H35G is at least 0.9.
Response: class 0

Query: Exam item: decide whether the reported AIRE transcriptional activation functional score for K133C is at least 0.9.
Response: class 0

Query: Exam item: decide whether the reported AIRE transcriptional activation functional score for K259A is at least 0.9.
Response: class 1

Query: Exam item: decide whether the reported AIRE transcriptional activation functional score for P166A is at least 0.9.
Response: class 1

Query: Exam item: decide whether the reported AIRE transcriptional activation functional score for A451L is at least 0.9.
Response: class 0

Query: Exam item: decide whether the reported AIRE transcriptional activation functional score for Q293V is at least 0.9.
Response: class 1

Query: Exam item: decide whether the reported AIRE transcriptional activation functional score for G387S is at least 0.9.
Response: class 0

Query: Exam item: decide whether the reported AIRE transcriptional activation functional score for S64A is at least 0.9.
Response: class 0

Query: Exam item: decide whether the reported AIRE transcriptional activation functional score for L327A is at least 0.9.
Response: class 1

Query: Exam item: decide whether the reported AIRE transcriptional activation functional score for A117I is at least 0.9.
Response: class 0

Query: Exam item: decide whether the reported AIRE transcriptional activation functional score for V279C is at least 0.9.
Response: class 1

Query: Exam item: decide whether the reported AIRE transcriptional activation functional score for G438L is at least 0.9.
Response: class 0

Query: Exam item: decide whether the reported AIRE transcriptional activation functional score for I211K is at least 0.9.
Response: class 0

Query: Exam item: decide whether the reported AIRE transcriptional activation functional score for A191N is at least 0.9.
Response: class 0

Query: Exam item: decide whether the reported AIRE transcriptional activation functional score for L366R is at least 0.9.
Response: class 1

Query: Exam item: decide whether the reported AIRE transcriptional activation functional score for P125A is at least 0.9.
Response: class 1

Query: Exam item: decide whether the reported AIRE transcriptional activation functional score for F59A is at least 0.9.
Response: class 0

Query: Exam item: decide whether the reported AIRE transcriptional activation functional score for E375V is at least 0.9.
Response: class 1

Query: Exam item: decide whether the reported AIRE transcriptional activation functional score for T16I is at least 0.9.
Response: class 0

Query: Exam item: decide whether the reported AIRE transcriptional activation functional score for A489P is at least 0.9.
Response: class 1

Query: Exam item: decide whether the reported AIRE transcriptional activation functional score for L177N is at least 0.9.
Response: class 0

Query: Exam item: decide whether the reported AIRE transcriptional activation functional score for R303G is at least 0.9.
Response: class 1

Query: Exam item: decide whether the reported AIRE transcriptional activation functional score for A25C is at least 0.9.
Response: class 0

Query: Exam item: decide whether the reported AIRE transcriptional activation functional score for L75S is at least 0.9.
Response: class 0

Query: Exam item: decide whether the reported AIRE transcriptional activation functional score for P497Y is at least 0.9.
Response: class 1

Query: Exam item: decide whether the reported AIRE transcriptional activation functional score for T68D is at least 0.9.
Response: class 0

Query: Exam item: decide whether the reported AIRE transcriptional activation functional score for G251S is at least 0.9.
Response: class 0

Query: Exam item: decide whether the reported AIRE transcriptional activation functional score for F525N is at least 0.9.
Response: class 0

Query: Exam item: decide whether the reported AIRE transcriptional activation functional score for L488W is at least 0.9.
Response: class 1

Query: Exam item: decide whether the reported AIRE transcriptional activation functional score for S402L is at least 0.9.
Response: class 1

Query: Exam item: decide whether the reported AIRE transcriptional activation functional score for R257M is at least 0.9.
Response: class 0

Query: Exam item: decide whether the reported AIRE transcriptional activation functional score for A31H is at least 0.9.
Response: class 0

Query: Exam item: decide whether the reported AIRE transcriptional activation functional score for G227E is at least 0.9.
Response: class 0

Query: Exam item: decide whether the reported AIRE transcriptional activation functional score for N244F is at least 0.9.
Response: class 1

Query: Exam item: decide whether the reported AIRE transcriptional activation functional score for Y85E is at least 0.9.
Response: class 0

Query: Exam item: decide whether the reported AIRE transcriptional activation functional score for L488T is at least 0.9.
Response: class 1

Query: Exam item: decide whether the reported AIRE transcriptional activation functional score for P407H is at least 0.9.
Response: class 1

Query: Exam item: decide whether the reported AIRE transcriptional activation functional score for V479R is at least 0.9.
Response: class 1

Query: Exam item: decide whether the reported AIRE transcriptional activation functional score for A452L is at least 0.9.
Response: class 0

Query: Exam item: decide whether the reported AIRE transcriptional activation functional score for A205I is at least 0.9.
Response: class 0
